Assay: chemical genetic growth profiling, strain panel (AID 1159580);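 also: tested at 20 µM; growth read once vehicle control cultures reached saturation at 30 °C; 1 = growth at the plate median or of vehicle wells; lower values mean less growth of the strain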
Details: S. cerevisiae deletion strains, growth OD, locus YGL086W, strain mad1, stronger effect = lower value
Hit rate of the full screen: of about 5,500 compounds, about 2,000 (36%) were called active. Inconclusive results (about 18%) are left out. This is one part of the list.
I'd appreciate it if you could supply normalized growth values for the items below.
One number for each entry.

compound=Cc1cccc(Nc2ccncc2S(=O)(=O)NC(=O)NC(C)C)c1 assayresult=1.02
compound="CCCCCC1C(=O)CCC1CC(=O)OC (stereo unspecified)" assayresult=1.01
compound=CCOC(=O)[C@H](CCc1ccccc1)N[C@@H](C)C(=O)N1Cc2ccccc2C[C@H]1C(=O)O assayresult=1
compound=CCC(=O)Nc1ccc(Cl)c(Cl)c1 assayresult=0.997
compound=CC12CC3CC(C)(C1)CC(N)(C3)C2 assayresult=0.988
compound=CCCCC[C@H](CC(=O)NO)C(=O)N[C@H](C(=O)N1CCC[C@H]1CO)C(C)C assayresult=1.01

Batch request: normalized growth per item, same order as input.
1. C=C1C2CCC3(C)C(c4ccoc4)OC(=O)CC13OC1CC(OC(C)=O)C(C)(C)C(CC(=O)OC)C12C (stereo unspecified)
2. CC[C@H](CCC(C)[C@H]1CCC2C3CCC4C[C@@H](O)CC[C@]4(C)C3CC[C@@]21C)C(C)C (stereo partly specified)
3. CN(C)C(=O)Nc1ccc(Cl)c(Cl)c1
4. CC1(C)C(O)CC(O)C2(C)C1CC(O)C1(C)C2CCC2(C)C(c3ccoc3)OC(=O)C3OC321 (stereo unspecified)
5. CC(CCC(=O)O)[C@H]1CCC2C3C[C@H](O)[C@@H]4C[C@H](O)CC[C@]4(C)C3CC[C@@]21C (stereo partly specified)
6. CO[C@]12C[C@@H](COC(=O)c3cncc(Br)c3)CN(C)[C@@H]1Cc1cn(C)c3cccc2c13
7. O=C(Nc1ccccc1)Nc1ccccc1
8. CC(=O)Nc1ccccc1

1. 0.998
2. 0.997
3. 0.997
4. 1
5. 1.04
6. 1
7. 0.977
8. 0.981

Batch request: normalized growth per item, same order as input.
1. C=C1[C@H]2CC[C@@]3(C)[C@H](c4ccoc4)OC(=O)C[C@]13O[C@H]1C[C@H](O)C(C)(C)[C@H](CC(=O)OC)[C@]12C
2. CCCCCC1C(=O)CCC1CC(=O)O (stereo unspecified)
3. O=C(Nc1ccccc1)c1ccccc1O
4. CC(C)CCCC(C)C1CCC2C3CC[C@H]4CCCC[C@]4(C)C3CC[C@]12C (stereo partly specified)
5. COc1cc([C@@H]2c3cc4c(cc3[C@H](OC(C)=O)[C@H]3COC(=O)[C@@H]23)OCO4)cc(OC)c1OC
6. COc1cc(S(C)=O)ccc1-c1nc2ncccc2[nH]1 (stereo unspecified)

[1, 0.994, 0.966, 1.01, 1.01, 0.995]

Field request: normalized growth | item: "COc1cc2c(cc1/C=C/C(=O)c1cc(OC)c(OC)cc1OC)OCO2"
1.01
